inhibition by entry:
# Test system: Serine/threonine-protein kinase B-raf (Homo sapiens), P15056 [V600E];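 note: mean inhibition of the BRAF V599E mutant, from GSK PKIS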
# Sequence (P15056 whole entry V600E): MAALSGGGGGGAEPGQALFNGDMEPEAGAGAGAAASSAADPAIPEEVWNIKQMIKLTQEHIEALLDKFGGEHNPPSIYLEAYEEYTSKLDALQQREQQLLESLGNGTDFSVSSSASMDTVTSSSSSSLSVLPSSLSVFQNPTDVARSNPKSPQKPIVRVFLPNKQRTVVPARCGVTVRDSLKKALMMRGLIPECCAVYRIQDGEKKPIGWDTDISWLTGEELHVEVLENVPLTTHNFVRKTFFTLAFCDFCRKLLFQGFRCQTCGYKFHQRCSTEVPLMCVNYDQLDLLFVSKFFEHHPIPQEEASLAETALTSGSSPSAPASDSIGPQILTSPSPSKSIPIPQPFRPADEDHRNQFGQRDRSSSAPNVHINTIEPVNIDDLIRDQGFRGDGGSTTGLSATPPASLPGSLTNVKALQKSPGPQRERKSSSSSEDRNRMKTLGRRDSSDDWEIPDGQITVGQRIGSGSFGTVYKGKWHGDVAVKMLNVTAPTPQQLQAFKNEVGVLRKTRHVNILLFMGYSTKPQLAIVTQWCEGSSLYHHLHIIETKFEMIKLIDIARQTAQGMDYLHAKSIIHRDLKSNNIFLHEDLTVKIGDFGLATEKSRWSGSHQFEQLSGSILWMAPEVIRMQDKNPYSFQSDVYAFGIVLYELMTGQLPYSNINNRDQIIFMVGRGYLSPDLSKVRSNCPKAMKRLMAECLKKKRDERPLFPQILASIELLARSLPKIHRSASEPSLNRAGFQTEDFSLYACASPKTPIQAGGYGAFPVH
# Condition details: at 0.1 µM
# Description: GSK_PKIS: BRAF (V599E mutant) mean inhibition at 0.1 uM [Nanosyn]

Given smiles | Target desc | inhibition [%]
c1ccc(-c2n[nH]cc2-c2ccnc(-c3ccc(OCCN4CCOCC4)cc3)c2)nc1 | Serine/threonine-protein kinase B-raf (Homo sapiens), P15056 [V600E] | -4.04
COc1cc2ncn(-c3cc(OCCc4ccccc4)c(C(N)=O)s3)c2cc1OC | Serine/threonine-protein kinase B-raf (Homo sapiens), P15056 [V600E] | 3.25
CN(C)c1ccc2c(c1)/C(=C/Nc1ccc(S(N)(=O)=O)cc1)C(=O)N2 | Serine/threonine-protein kinase B-raf (Homo sapiens), P15056 [V600E] | 2.9
CCc1nccc2c1nc(-c1nonc1N)n2CC | Serine/threonine-protein kinase B-raf (Homo sapiens), P15056 [V600E] | 0.46
Cc1ccc(C(=O)NC2CCC2)cc1-c1ccc(C(=O)NCC2CC2)cc1 | Serine/threonine-protein kinase B-raf (Homo sapiens), P15056 [V600E] | 3.91
O=C(Nc1n[nH]c2nc(-c3ccc(O)cc3)c(Br)cc12)C1CC1 | Serine/threonine-protein kinase B-raf (Homo sapiens), P15056 [V600E] | 10.1
O=C(Nc1n[nH]c2nc(-c3ccco3)ccc12)C1CC1 | Serine/threonine-protein kinase B-raf (Homo sapiens), P15056 [V600E] | 1.17
COc1ccc2ncn(-c3cc(O[C@H](C)c4ccccc4Cl)c(C(N)=O)s3)c2c1 | Serine/threonine-protein kinase B-raf (Homo sapiens), P15056 [V600E] | 3.17
O=C1Nc2ccc(I)cc2C1=Cc1cc(Br)c(O)c(Br)c1 | Serine/threonine-protein kinase B-raf (Homo sapiens), P15056 [V600E] | 4.33
Fc1ccc(-c2ncn(C3CCNCC3)c2-c2ccnc(Oc3ccc(Oc4ccccc4)cc3)n2)cc1 | Serine/threonine-protein kinase B-raf (Homo sapiens), P15056 [V600E] | 4.03

---

# Target desc: Platelet-derived growth factor receptor beta (Homo sapiens) (UniProt P09619);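 note: reported value is the mean percent inhibition of the kinase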
# Sequence (P09619 whole entry): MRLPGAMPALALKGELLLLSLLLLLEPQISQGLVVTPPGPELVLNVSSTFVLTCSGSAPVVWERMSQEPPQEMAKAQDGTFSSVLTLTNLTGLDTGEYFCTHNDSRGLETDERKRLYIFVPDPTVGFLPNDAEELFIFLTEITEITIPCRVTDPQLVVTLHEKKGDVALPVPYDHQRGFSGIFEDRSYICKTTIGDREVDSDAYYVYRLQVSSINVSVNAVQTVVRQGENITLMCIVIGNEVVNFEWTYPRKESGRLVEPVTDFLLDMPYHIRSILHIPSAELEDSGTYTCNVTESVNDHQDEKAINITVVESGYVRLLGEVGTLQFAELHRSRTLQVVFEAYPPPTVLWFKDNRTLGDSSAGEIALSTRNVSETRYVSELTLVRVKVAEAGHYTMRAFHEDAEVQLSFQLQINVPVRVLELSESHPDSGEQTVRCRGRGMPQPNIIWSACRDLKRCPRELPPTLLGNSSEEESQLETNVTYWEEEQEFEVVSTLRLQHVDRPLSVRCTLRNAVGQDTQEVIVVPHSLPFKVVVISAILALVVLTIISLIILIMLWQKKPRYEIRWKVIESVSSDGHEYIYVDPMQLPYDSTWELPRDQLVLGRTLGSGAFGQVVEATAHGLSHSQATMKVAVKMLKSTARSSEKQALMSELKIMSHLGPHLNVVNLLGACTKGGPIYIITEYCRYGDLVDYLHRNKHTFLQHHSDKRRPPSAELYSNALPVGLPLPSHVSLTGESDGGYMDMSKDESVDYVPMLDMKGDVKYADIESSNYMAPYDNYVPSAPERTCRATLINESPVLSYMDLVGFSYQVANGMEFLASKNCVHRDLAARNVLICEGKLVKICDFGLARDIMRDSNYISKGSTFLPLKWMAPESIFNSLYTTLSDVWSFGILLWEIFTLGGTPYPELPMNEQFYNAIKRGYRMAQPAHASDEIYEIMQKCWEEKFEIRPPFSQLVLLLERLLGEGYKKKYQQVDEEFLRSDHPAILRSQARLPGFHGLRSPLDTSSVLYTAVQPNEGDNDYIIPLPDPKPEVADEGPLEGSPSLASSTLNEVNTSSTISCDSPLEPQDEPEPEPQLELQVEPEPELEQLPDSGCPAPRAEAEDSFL
# Condition details: at 0.1 µM

Given smiles | inhibition
NC(=O)c1cc(-c2ccc(F)cc2)cc(-c2ccncc2)c1N | 2.02%
O=C(Nc1n[nH]c2cc(-c3ccccc3)ccc12)C1CC1 | 6.45%
CNC(=O)c1cncc(/C=C/c2c(C)cccc2C)c1 | 7.03%
O=C(NCC1CC1)c1ccc(-c2cccc(C(=O)NC3CC3)c2)cc1 | 9.04%
Cc1ccc(C(=O)NC(C)C)cc1-c1ccc(C(=O)NCC2CC2)cc1 | 0.76%
NS(=O)(=O)c1ccc(Nc2cc(-c3ccc(O)c(F)c3)n[nH]2)cc1 | 11.8%
CCc1ccc(Oc2nccc(-c3c(-c4ccc(F)cc4)ncn3C3CCNCC3)n2)cc1 | 1.82%
COc1cc2ncn(-c3cc(OCc4cccs4)c(C(N)=O)s3)c2cc1OC | 31.2%
COc1ccc2ncn(-c3cc(O[C@H](C)c4ccccc4Cl)c(C(N)=O)s3)c2c1 | 5.46%
CCN(CC)Cc1ccc(Nc2nccc(-c3cnn4ncccc34)n2)cc1 | 29.1%
Fc1ccc(-c2ncn(C3CCNCC3)c2-c2ccnc(Oc3ccc(Oc4ccccc4)cc3)n2)cc1 | 2.57%

---

# Target desc: NUAK family SNF1-like kinase 1 (Homo sapiens);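 note: reported values are mean inhibition of ARK5 (NUAK1), from the GSK PKIS screen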
# Condition details: at 0.1 µM
Items are presented alongside their recorded inhibition.

Compound | inhibition / %
O=C1NC(=O)C(c2cccc(Cl)c2)=C1Nc1ccc(Cl)c(C(=O)O)c1 | -9.56
NC(=O)c1cc(-c2ccncc2)cc(-c2ccccc2)c1N | 0.7
CCc1cccc(CC)c1/C=C/c1cncc(C(=O)NC)c1 | 1.6
C[C@@H](Oc1cc(-n2cnc3ccc(OCC4CCN(C)CC4)cc32)sc1C(N)=O)c1ccccc1Cl | 30.2
CN(C)CCOc1ccc(-c2cc(-c3ccc4c(c3)CCC4=NO)c(-c3ccncc3)o2)cc1 | 0.84
COc1cccc(-n2cnc3c(N/N=C/c4ccncc4)ncnc32)c1 | 2.39
COc1ccc2ncn(-c3cc(O[C@H](C)c4ccccc4Cl)c(C(N)=O)s3)c2c1 | 0.64
COc1cc(C)c(N(C)C(=O)CN(C)C)cc1Nc1nc(Nc2cccc(F)c2C(N)=O)c2cc[nH]c2n1 | 0.7
COc1ccc2cc(-c3c(-c4ccncc4)nc(-c4ccc(S(C)(=O)=O)cc4C)n3C)ccc2c1 | -2.12
C[C@@H](Oc1cc(-n2cnc3ccc(OC4CCN(C)CC4)cc32)sc1C(N)=O)c1ccccc1Cl | 22
NS(=O)(=O)c1ccc(N/N=C2\C(=O)Nc3ccc(-c4cnco4)cc32)cc1 | 5.26
COc1cc2ncn(-c3cc(OCCc4ccccc4)c(C(N)=O)s3)c2cc1OC | 1.92
COc1ccc(-c2ccc3c(NC(=O)C4CC4)n[nH]c3n2)cc1 | -0.56
CS(=O)(=O)CCNCc1ccc(-c2ccc3ncnc(Nc4ccc(OCc5ccccc5)c(Br)c4)c3c2)o1 | -0.46
NS(=O)(=O)c1ccc(Nc2cc(-c3ccc(O)c(F)c3)n[nH]2)cc1 | 2.73
CN(C)CCCNc1nccc(-c2c(-c3ccc(F)cc3)nn3cc(C(F)(F)F)ccc23)n1 | -1.31
COc1cc(Nc2ncc3c(C)nc(-c4cccc(Oc5ccccc5)c4)n3n2)cc(OC)c1OC | 4.33
NC(=O)c1ccc(Oc2nccc(-c3c(-c4ccc(F)cc4)ncn3C3CCNCC3)n2)cc1 | 1.39
COc1ccc2cc(-c3c(-c4ccncc4)nc(-c4ccc([S+](C)[O-])cc4C)n3C)ccc2c1 (centres undefined) | -1.98
CCN(CC)Cc1ccc(Nc2nccc(-c3cnn4ncccc34)n2)cc1 | 69
Clc1ccc(CNc2nccc(-c3cnn4ncccc34)n2)cc1 | 3.31
Nc1nccc(-c2c(-c3ccc(F)cc3)ncn2C2CCC(O)CC2)n1 (centres undefined) | 9.02
COc1ccc(C2=C(N3CCc4ccccc43)C(=O)NC2=O)cc1 | 3.26
FC(F)(F)c1cccc(Nc2nccc(-c3cnn4nc(-c5ccccc5)ccc34)n2)c1 | -0.22
C#Cc1cccc(Nc2ncnc3ccc(OCCCCNCCS(C)(=O)=O)cc23)c1 | 4.55
CN(c1ccc(NC(=O)Nc2c(Cl)cccc2Cl)cc1)c1ccnc(Nc2cccc(CS(C)(=O)=O)c2)n1 | 9.51
NC(=O)c1cc(-c2ccc(F)cc2)cc(-c2ccncc2)c1N | -0.64
CCS(=O)(=O)c1ccc(OC)c(Nc2ncc(-c3ccccc3Cl)o2)c1 | 2.27
Cc1ccc(NC(=O)c2ccoc2)cc1-c1ccc(C(=O)NCC2CC2)cc1 | -0.47
COc1cc(Nc2ncc(-c3ccccc3)o2)cc(OC)c1OC | 24.4
O=C(Nc1ccc(Oc2ccc3[nH]c(NC(=O)c4ccccc4)nc3c2)cc1)Nc1cc(C(F)(F)F)ccc1F | 1.15
Cc1ccc(C(=O)NC2CCC2)cc1-c1ccc(C(=O)NCC2CC2)cc1 | 0.27
NS(=O)(=O)c1ccc(N/N=C2\C(=O)Nc3ccc(C(=O)NCCCn4ccnc4)cc32)cc1 | 19.4
Fc1ccc(-c2ncn(C3CCNCC3)c2-c2ccnc(Oc3ccc(Oc4ccccc4)cc3)n2)cc1 | 0.78
COc1cc2ncn(-c3cc(OCc4cccs4)c(C(N)=O)s3)c2cc1OC | 20.1
Fc1ccc(-c2ncn(C3CCNCC3)c2-c2ccnc(Oc3ccc(F)c(F)c3)n2)cc1 | 2.44
N#Cc1ccc(Oc2nccc(-c3c(-c4ccc(F)cc4)ncn3C3CCNCC3)n2)cc1 | -1.37
COc1cc(Nc2ncc3c(C)nc(-c4cccc(C(F)(F)F)c4)n3n2)cc(OC)c1OC | 35.4
c1ccc(Oc2ccc(Nc3ncc(-c4ccccc4)o3)cc2)cc1 | -0.75
